Where these numbers come from: PubChem BioAssay

Each item that follows carries a reported composite z-score.
# method-description: small-molecule microarray binders of probe aDKK1, primary screen, biochemical, biotinylated probe, 635/667 nm fluorescence (AID 1099);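 also: score merges 667nm spot fluorescence with signal to noise across triplicate slides; reference of the scale not given here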
# condition-info: higher = more signal
readout-kind: composite z-score

NCCCCCNC(=O)[C@@H]1C[C@@H]2C(=O)NCC(=O)N2[C@@H]1c1cccc(OCCO)c1: 0.237
[N-]=[N+]=NCc1ccccc1[C@H]1OC(c2ccc(OCCCO)cc2)=N[C@@]1(CCS(=O)(=O)c1ccccc1)C(=O)N1CCCCC1: 1.05
C=CCC(OC(C)=O)[C@@H]1[C@@H](N(Cc2ccc(-c3cccc(C(F)(F)F)c3)o2)C(=O)c2ccc(-c3ccccc3)cc2)c2cc(OCCCO)ccc2N1C(=O)c1ccc2ccccc2n1 (some centres undefined): 0.148
CCCC[C@@H]1C[C@H]1[C@@H](NC(=O)Cc1ccccc1)c1ccc(-c2ccccc2)cc1: -0.0423

* * *

# System: Sonic hedgehog protein (Shh)
# method-description: small-molecule binders of Shh protein, primary screen, biochemical, small-molecule microarray, 635/667 nm fluorescence (AID 1151);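 also: Shh protein binding to compounds spotted on small-molecule microarray slides; score combines spot fluorescence intensity with signal-to-noise across triplicate slides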
# condition-info: small-molecule microarray binding, 635 nm fluorescence; higher = more signal
readout-kind: composite z-score

CCOC(=O)C[C@H]1[C@H](OC(=O)Cc2ccc3c(c2)OCO3)[C@@H](NC(=O)CC(C)C)c2cc(OCCCO)ccc2N1C(=O)Cc1ccc(OC)cc1: -0.113
[N-]=[N+]=Nc1ccccc1[C@@H]1OC(c2ccc(OCCCO)cc2)=N[C@]1(Cc1ccccc1)C(=O)NCC(O)CO (some centres undefined): -0.231
O=C1O[C@H](c2ccccc2)[C@H](c2ccccc2)N2[C@H]1[C@@H](C(=O)Nc1nc3ccccc3s1)[C@]1(C(=O)Nc3ccc(C#CC4(O)CCCCCC4)cc31)[C@H]2c1ccccc1OCCO: 1.32
CCOC(=O)C1=C[C@@H](c2ccccc2)N(S(=O)(=O)c2ccc(C)cc2)[C@H]1c1ccccc1Cl: 0.844
O=C1O[C@H](c2ccccc2)[C@H](c2ccccc2)N2[C@H]1[C@@H](C(=O)Nc1nc3ccccc3s1)[C@]1(C(=O)Nc3ccc(C#CCCO)cc31)[C@H]2c1ccc(O)cc1: 1.36
COC(=O)c1c2oc(c1C(=O)OC)C(=O)N(C)Cc1cn(nn1)C[C@H](Cc1ccccc1)NC(=O)N[C@H](CO)CC2: 0.624
O=C(NCC(F)(F)F)[C@@H]1c2ccccc2C(=O)N(Cc2cc(F)cc(C(F)(F)F)c2)[C@H]1c1ccc(CO)cc1: -1.09
COc1ccc(NC(=O)O[C@H]2[C@H](OC(=O)Nc3ccccc3)[C@H](OC(=O)Nc3ccccc3)[C@@H](OC)O[C@@H]2CO)cc1: 1.44
O=C1C2C=CC(C(O)c3ccc(Br)cc3)N(Nc3ccccc3F)C2C(=O)N1c1ccccc1 (centres undefined): -0.481
C=C(/C(=C/C[C@H](OC(=O)c1ccncc1)c1ccc(CO)o1)c1cc(C(=O)OC)ccc1OC)C(C)C: 1.36
COc1ccc([Si](C)(C)[C@@H]2[C@@H](CC(=O)N(CCO)Cc3ccccc3)O[C@]3(C(=O)N(c4ccccc4)c4ccccc43)[C@H]2C)cc1: 1.17
CC(C)C[C@@H]1NC(=O)[C@@H]2C[C@H](C(=O)NCCCCCN)[C@H](c3ccc(O)cc3)N2C1=O: 2.04
COC(=O)Cn1c(C(=O)N(C)C)cc2c1C[C@H]1CN(C(=O)c3ccccc3)[C@@](Cc3ccc(F)cc3)(C(=O)OC)[C@@H]21: -0.238
COc1ccc([Si](C)(C)[C@H]2[C@H](CCO)O[C@@]3(C(=O)N(Cc4cccc(N5C(=O)COc6ccccc65)c4)c4ccccc43)[C@@H]2C)cc1: 0.419
